- Tested on: Ipomoea hederacea (IPOHE)
- test-protocol: Post-emergence efficacy, glasshouse
- Assay type: in vivo
- condition-set: Ipomoea hederacea, post-emergence, 312 h; Application Rate 1000 g/Ha; evaluated after 13 days; 100=total damage to plant, 0=no damage to plant; read-out: Control of weed species after post-emergence application, IPOHE
Assign pest or weed control at 1000 g/ha to each entry below.
Answers are plain numbers, in %.

Need pest or weed control at 1000 g/ha for each of these compounds.
1. CC[n+]1cc(P(=O)([O-])O)c2ccccc2n1
2. CC(C)S(=O)(=O)[N-]C(=O)c1c[n+](C)nc2ccccc12
3. C[n+]1cc(CCC(=O)O)c2ccccc2n1
4. CCCP(=O)([O-])c1c[n+](C)nc2ccccc12
5. C[n+]1cc(C(=O)[N-]S(=O)(=O)c2ccccc2)c2ccccc2n1
6. O=C(O)c1c[n+](CCO)nc2ccccc12

Response line:
1. 60
2. 50
3. 70
4. 90
5. 20
6. 100

Prompt line: Report measured pest or weed control at 1000 g/ha; entry is C[n+]1nc2ccccc2c(C(=O)[O-])c1-c1ccccc1
Response line: 100
